Measurement target: CDK2 (Homo sapiens)
Construct: purchased Carna Company
Protocol: CDK enzymology experiment in vitro, capillary mobility shift assay (MSA)
Type: biochemical
Experimental context: read-out: CDK2 (nM) inhibitory IC50
Text: CDK1/CDK2/CDK4/CDK6/CDK7/CDK9 were purchased from Carna Company; Carliper substrate CTD3/substrate 18/substrate 8 were purchased from Gil Biochemical Company; Dinaciclib/Palbociclib were purchased from Selleckchem Company; DMSO was purchased from Sigma Company; 384-well plates were purchased from Corning Company. […]
Outcome measure: IC50

These recorded examples may help you get a feel for the data.
Molecule | Test result
O=S(=O)(c1cnn(C2CCNCC2)c1)N1CCC(Nc2ncc(C(F)(F)F)c(O[C@H]3CCOC3)n2)CC1 [Compound 119] | < 0.5 nM
Cn1cc(S(=O)(=O)N2CCC(Nc3ncc(C#N)c(NC4CCCC4(F)F)n3)CC2)cn1 (stereo not shown) [Compound 37] | 2.5 to 10 nM
CN1CCC(c2ccc(S(=O)(=O)N3CCC(Nc4ncc(C#N)c(NC5CCCC5)n4)CC3)cc2)CC1 [Example 17] | 0.5 to 2.5 nM
O=S(=O)(c1ccc(Br)cc1)N1CCC(Nc2ncc(C(F)(F)F)c(O[C@H]3CCOC3)n2)CC1 [Example 99] | 0.5 to 2.5 nM
O=S(=O)(c1ccc(N2CCNCC2)cc1)N1CCC(Nc2ncc(C(F)(F)F)c(O[C@H]3CCOC3)n2)CC1 [Example 116] | < 0.5 nM

# CN(c1nc(NC2CCN(S(=O)(=O)c3cnn(C)c3)CC2)ncc1C#N)C1CCCC1 [Compound 39] with CDK2 (Homo sapiens): IC50 is 0.5 to 2.5 nM

# CC(C)(O)Cn1cc(S(=O)(=O)N2CCC(Nc3ncc(C(F)(F)F)c(O[C@H]4CCOC4)n3)CC2)cn1 [Compound 156] with CDK2 (Homo sapiens): IC50 is 0.5 to 2.5 nM
